# System: Streptococcus pneumoniae
# Protocol text: Antimicrobial activity against penicillin-intermediate Streptococcus pneumoniae 3243 by CLSI method
# Format: functional
Experimental readout: MIC
Report the figure along with its unit, number first.

Check out these entries, answers already filled in.
[
  {
    "Molecule": "CC1(C)S[C@@H]2[C@H](NC(=O)Cc3ccccc3)C(=O)N2[C@H]1C(=O)O",
    "MIC": "0.25 mg/L"
  },
  {
    "Molecule": "C[C@@H](O)[C@H]1C(=O)N2C(C(=O)O)=C(SCCNC=N)C[C@H]12 [IMIPENEM ANHYDROUS]",
    "MIC": "0.016 mg/L"
  },
  {
    "Molecule": "C[C@@H](O)[C@H]1C(=O)N2C(C(=O)O)=C([C@H]3CCCO3)S[C@H]12",
    "MIC": "0.125 mg/L"
  },
  {
    "Molecule": "CO/N=C(\\C(=O)N[C@@H]1C(=O)N2C(C(=O)O)=C(COC(N)=O)CS[C@H]12)c1ccco1",
    "MIC": "0.25 mg/L"
  }
]

Now for another entry.
With Streptococcus pneumoniae as the test system, `CC1(C)S[C@@H]2[C@H](NC(=O)[C@H](N)c3ccc(O)cc3)C(=O)N2[C@H]1C(=O)O` showed MIC of 0.06 mg/L
